target: σ-receptor; assay: Binding activity for σ-receptor, [3H]DTG displacement in rat brain membrane preparation; conditions: rat whole brain (except cerebella) membrane, [3H]DTG 3 nM, 25°C 60 minutes; compounds tested as hydrochloride; read-out: Sigma [^3H] DTG Ki
Please respond with class 1 when measured Ki is strictly beneath 4 nM, and with class 0 in all other cases.

Illustrative cases are given below, each with its answer.
>>> classification("CC1(C)C2CC[C@]1(C)CN(C1CCCCC1)C2 [Example 13]")
"class 0"
>>> classification("CC1(C)C2CC[C@]1(C)CN(CC1CCCCC1)C2 [Example 11]")
"class 1"
>>> classification("CC1(C)C2CC[C@]1(C)CN(CCc1cccs1)C2 [Example 55]")
"class 0"
>>> classification("CC1(C)[C@H]2CC[C@]1(C)CN(CC13CC4CC(CC1C4)C3)C2 [Example 20]")
"class 0"
>>> classification("CC1(C)C2CC[C@]1(C)CN(CCC13CC4CC(CC(C4)C1)C3)C2 [Example 1]")
"class 1"

// switching to the query compound
Please determine if CC1(C)C2CC[C@]1(C)CN(CCC1C3CC4CC1CC(Cl)(C4)C3)C2 (stereo partly drawn) [Example 25] is below 4 nM in terms of Ki.
class 1

----------
The reader will find reported Ki values listed item by item below.
target: σ-receptor; test: Binding activity for σ-receptor, [3H]DTG displacement in rat brain membrane preparation; details: rat whole brain (except cerebella) membrane, [3H]DTG 3 nM, 25°C 60 minutes; compounds tested as hydrochloride; read-out: Sigma [^3H] DTG Ki
Output should be the measured figure followed by the unit it is expressed in.

Use the examples below as a reference point.
>>> reported_result("CC1(C)C2CC[C@]1(C)CN(CCc1ccncc1)C2")
"21.5 nM"
>>> reported_result("CC1(C)C2CC[C@]1(C)CN(CCCCC1CCCCC1)C2")
"3.72 nM"

Pending compound:
Dear colleague, please send me the reported Ki for CC1(C)[C@H]2CC[C@]1(C)CN(CCc1cccc3ccccc13)C2 when you can.
9 nM
